# Test system: murine leukemia L1210
# Run description: Antitumor activity test on murine leukemia L1210 in vivo
# Set-up: species or system male BDF1 mice
# Measurement conditions: 25 mg/kg i.p., days 1, 5, 9
For each record, write down the corresponding T/C (%).
Report the figure in % without appending any unit label.

Problem: Quick one: give measured T/C (%) for CC1(C)OC2C[NH2+][Pt-2]3([NH2+]CC2O1)[O]C(=O)C1(CCC1)C(=O)[O]3 (centres unmarked) [Example 27]
Result: 124

Problem: Quick one: give measured T/C (%) for CC1OC2C[NH2+][Pt-2]3([NH2+]CC2O1)[O]C(=O)CC(=O)[O]3 (centres unmarked)
Result: 156

Problem: Quick one: give measured T/C (%) for N.N.O=C([O-])C1(C(=O)[O-])CCC1.[Pt+2] [carboplatin, reference compound]
Result: 148

Problem: Quick one: give measured T/C (%) for CCC1C(=O)[O][Pt]2([NH]C[C@H]3OC4(CCCC4)O[C@@H]3C[NH]2)[O]C1=O (some centres unmarked)
Result: 147

Problem: Quick one: give measured T/C (%) for CCC1OC2C[NH2+][Pt-2]3([NH2+]CC2O1)[O]C(=O)C(C)(C)C(=O)[O]3 (centres unmarked)
Result: 213

Problem: Quick one: give measured T/C (%) for CC1[O][Pt][O]C1=O.CCC1OC(CN)C(CN)O1 (centres unmarked)
Result: 165

Problem: Quick one: give measured T/C (%) for CC1OC(CN)C(CN)O1.CC1[O][Pt][O]C1=O (centres unmarked)
Result: 327

Problem: Quick one: give measured T/C (%) for CC(C)C1OC2C[NH2+][Pt-2]3([NH2+]CC2O1)[O]C(=O)C1(CCC1)C(=O)[O]3 (centres unmarked)
Result: 126

Problem: Quick one: give measured T/C (%) for CCC1OC2C[NH2+][Pt-2]3([NH2+]CC2O1)[O]C(=O)C(CC)C(=O)[O]3 (centres unmarked)
Result: 197

Problem: Quick one: give measured T/C (%) for CCC1OC2C[NH2+][Pt-2]3([NH2+]CC2O1)[O]C(=O)C1(CCC1)C(=O)[O]3 (centres unmarked)
Result: 193

Problem: Quick one: give measured T/C (%) for O=C1[O][Pt-2]2([NH2+]CC3OC4(CCCC4)OC3C[NH2+]2)[O]C(=O)C12CCC2 (centres unmarked) [Example 30]
Result: 110

Problem: Quick one: give measured T/C (%) for CC(C)C1OC2C[NH2+][Pt-2]3([NH2+]CC2O1)[O]C(=O)C(C)(C)C(=O)[O]3 (centres unmarked)
Result: 123
